assay: chemical genetic growth profiling, strain panel (AID 1159580);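 also: tested at 20 µM; growth read once vehicle control cultures reached saturation at 30 °C; 1 = growth at the plate median or of vehicle wells; lower values mean less growth of the strain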; conditions: S. cerevisiae deletion strains, growth OD, locus YGR078C, strain PAC10, active compounds read low
The whole screen tested about 5,500 compounds, of which about 2,000 (36%) were called active. About 18% were inconclusive and are not listed. The list shows a part of the results.
measure.name: normalized growth
Just the number, please, no unit attached.

Some solved entries appear below for comparison.
CC(=O)[O][Hg][c]1ccccc1 : 0.0552
CC(=O)NC(=O)/C(C#N)=C/N1CCN(Cc2ccccc2)CC1 : 0.994
OC(CSc1ccccc1)CN1CCN(c2ccc(C(F)(F)F)cn2)CC1 (stereo unspecified) : 1

Which normalized growth value belongs to Cc1ccc(N=Nc2c(C)[nH]n(C)c2=O)cc1 ? 0.959

Entry COc1ccccc1N1CCN(CC(O)COc2cccc3ccccc23)CC1 (stereo unspecified) has what normalized growth? 0.978
